# TARGET_ENTITY: UniProt P10632
# Sequence (P10632 whole entry): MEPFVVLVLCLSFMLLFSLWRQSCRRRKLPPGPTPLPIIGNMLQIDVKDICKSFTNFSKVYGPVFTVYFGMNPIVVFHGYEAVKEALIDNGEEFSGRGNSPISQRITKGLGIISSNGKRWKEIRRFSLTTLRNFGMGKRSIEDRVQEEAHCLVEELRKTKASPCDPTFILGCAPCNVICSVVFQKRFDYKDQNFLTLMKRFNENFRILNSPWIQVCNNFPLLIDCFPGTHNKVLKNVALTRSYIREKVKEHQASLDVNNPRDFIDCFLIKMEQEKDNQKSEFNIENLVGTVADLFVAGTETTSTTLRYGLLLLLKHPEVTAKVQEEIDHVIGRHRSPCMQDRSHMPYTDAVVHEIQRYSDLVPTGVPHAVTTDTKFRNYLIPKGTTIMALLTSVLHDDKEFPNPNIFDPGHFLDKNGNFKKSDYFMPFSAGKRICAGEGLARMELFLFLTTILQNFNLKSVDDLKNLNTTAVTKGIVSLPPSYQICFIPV
READOUT_KIND: IC50

INSERT INTO measurements (structure_smiles_string, readout_kind, result) VALUES
  ('C[C@@H](O[C@H]1CC[C@]2(CCC(F)(F)CO2)CC1)c1nc(-c2cc(F)c(CS(C)(=O)=O)c(F)c2)no1', 'IC50', '> 50 µM');

Reference source: ChEMBL document CHEMBL4387781
